# System: OVCAR-4 ovarian
# protocolDetails: NCI tumour cell line growth inhibition, 48 h
Catalogue of TGI values

| compound | relationalOperator | TGI / µM |
| --- | --- | --- |
| Cc1c2c(nn1-c1ccc(S/N=C3\SCC(=O)CN3c3ccccc3)cc1)-c1ccccc1CC2 | > | 50 |
| C[C@H](NC(=O)OC1C2C=CC(O)C1CC2)c1ccccc1 (stereo not given in full) | > | 100 |
| Cc1ccc(S(=O)(=O)N2CCCCC2CCO)cc1 (stereo not given) | > | 100 |
| CSC(=S)N/N=C(\C)c1ccccn1 | = | 10.6 |
| C=C1C(=O)OC2C(C)C3C=CC(=O)[C@@]3(C)C(OC(=O)/C(C)=C/C)C1[C@@H]2OC(C)=O (stereo not given in full) | = | 2.53 |
| CCCCCCCCCCCCCC(=O)OCC1OC(OC)C(NC(=O)N(CCCl)N=O)C(O)C1O (stereo not given) | = | 50.7 |
| COC(=O)c1oc2c(C(=O)/C=C/c3ccc(OC)cc3)c(OCCCN3CCCCC3)ccc2c1C | = | 9.15 |
| Cc1ccccc1NC(=O)c1[nH]c(=S)nc(N)c1-c1ccccc1C | > | 100 |
| C=C1C(=O)O[C@H]2[C@H]1CC/C(Cn1cc(CCC)nn1)=C\CC[C@@]1(C)O[C@@H]21 | = | 22.7 |
| CC(C)(C)[C@@H]1NC(=O)CN1C(=O)OCc1ccccc1 | > | 100 |

---

# Tested on: BT-549 breast
# protocolDetails: NCI tumour cell line growth inhibition, 48 h
Decide using TGI: a value greater than or equal to 30 µM is MET, a smaller one is NOT MET.

| compound | studyTarget | labelClass |
| --- | --- | --- |
| CC1(C)COC(c2cccc(C3=NC(C)(C)CO3)c2)=N1 | BT-549 breast | MET |
| N#C/C(=C/N1CCN(C(=O)c2ccco2)C1=S)C(N)=O | BT-549 breast | MET |
| Cc1ccccc1NC(=O)NC(CC(N)=O)c1ccc2c(c1)nc(-c1cccc(Oc3ccc(C(C)(C)C)cc3)c1)n2CCCN1CCCCC1C (stereo not drawn) | BT-549 breast | NOT MET |
| CN1CCN(c2ccc3nc(-c4ccc(OCCCN5C(=O)c6cccc7cccc(c67)C5=O)cc4)[nH]c3c2)CC1 | BT-549 breast | NOT MET |
| Cc1cc2nc3c(C#N)c(-c4ccccc4)/c(=C\Nc4cccc(C(F)(F)F)c4)c(=O)n3c2cc1C | BT-549 breast | MET |
| CC(=O)c1nc2ccccc2n1CC(=O)c1ccc([N+](=O)[O-])cc1 | BT-549 breast | MET |
| COc1ccc(N(C(=O)OC(C)(C)C)[C@@H]2C(C)=C[C@H]([S@@](=O)c3ccc(C)cc3)[C@@H]3C(=O)N(C)C(=O)[C@@H]32)cc1 | BT-549 breast | MET |
| COC(=O)CP1(=O)OC2C(C3CCC2(C)C3(C)C)N1c1cc(C(F)(F)F)cc(C(F)(F)F)c1 (stereo not drawn) | BT-549 breast | MET |
| CC(C)=NN/C(=N\S(=O)(=O)c1cc(Cl)c(Oc2ccc([N+](=O)[O-])cc2Cl)c(Cl)c1)Nc1ccc(Cl)cc1 | BT-549 breast | MET |
| O=C(NC(=S)NS(=O)(=O)c1ccc(N2N=C3c4ccccc4CC3C2c2cccs2)cc1)c1ccccc1 (stereo not drawn) | BT-549 breast | MET |
| C(=N\NC1=NCCCN1)/c1ccc(-c2cn3cc(/C=N/NC4=NCCCN4)ccc3n2)cc1 | BT-549 breast | MET |
| NS(=O)(=O)c1ccc(CNC(=S)NC(=O)Nc2ccc(Cl)c(Cl)c2)cc1 | BT-549 breast | MET |
| O=[N+]([O-])c1ccc2[nH]cc(-c3c4ccccc4cc4[nH]c5ccc([N+](=O)[O-])cc5c34)c2c1 | BT-549 breast | NOT MET |
| COC(=O)c1nc2c(C)c(O)c(O)c([C@H](C)CCC=C(C)C)c2o1 | BT-549 breast | MET |
| O=Nc1c(-c2cccc([N+](=O)[O-])c2)nc2ncccn12 | BT-549 breast | MET |
| CC(C)(C)c1cc(C2COC(=O)COCCOCC(=O)OCCOCCO2)cc(C(C)(C)C)c1O (stereo not drawn) | BT-549 breast | MET |
| Cc1ccc(Nc2ncnc3sc(SCc4ccccc4)nc23)cc1 | BT-549 breast | MET |
| COC(=O)c1oc2c(C(=O)/C=C/c3ccc(OC)cc3)c(OCCCN3CCCCC3)ccc2c1C | BT-549 breast | NOT MET |

// provenance: PubChem BioAssay (NCI)
